Target: Polyunsaturated fatty acid 5-lipoxygenase (Homo sapiens)
Sequence (P09917 whole entry): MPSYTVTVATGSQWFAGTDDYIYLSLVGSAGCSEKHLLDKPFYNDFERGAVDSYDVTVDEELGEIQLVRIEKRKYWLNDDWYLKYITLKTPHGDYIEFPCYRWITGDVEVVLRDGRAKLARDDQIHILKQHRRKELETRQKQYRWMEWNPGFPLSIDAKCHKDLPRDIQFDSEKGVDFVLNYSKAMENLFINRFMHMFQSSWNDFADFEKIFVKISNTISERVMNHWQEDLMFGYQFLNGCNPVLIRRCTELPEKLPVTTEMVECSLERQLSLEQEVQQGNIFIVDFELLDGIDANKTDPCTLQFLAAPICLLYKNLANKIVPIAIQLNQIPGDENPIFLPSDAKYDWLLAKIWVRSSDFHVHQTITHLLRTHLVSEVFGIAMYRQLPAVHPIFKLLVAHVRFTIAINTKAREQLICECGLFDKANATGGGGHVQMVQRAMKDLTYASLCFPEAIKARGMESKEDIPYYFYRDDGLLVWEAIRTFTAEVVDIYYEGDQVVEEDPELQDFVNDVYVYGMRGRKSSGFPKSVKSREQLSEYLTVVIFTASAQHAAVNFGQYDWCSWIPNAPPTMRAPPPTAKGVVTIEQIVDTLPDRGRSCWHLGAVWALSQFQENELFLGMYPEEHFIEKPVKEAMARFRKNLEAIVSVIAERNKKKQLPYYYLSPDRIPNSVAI
Assay: Inhibitory activity against 5-lipoxygenase in Human whole blood (HWBL) stimulated with calcium ionophore (A23187) and LTB4 measured by enzyme immunoassay
property.name: IC50 (µM)

CC(C)Cc1ccc(C(C)N(O)C(N)=O)cc1 (stereo unspecified) ... 2.5

P. CC(C)Cc1ccc(C(C)NC(=O)NO)cc1 (stereo unspecified)
Q. COc1ccc2cc([C@H](C)NC(=O)NO)ccc2c1
R. COc1ccc2cc([C@H](C)N(O)C(N)=O)ccc2c1
S. COc1ccc2c(c1)c(CNC(=O)N(C)O)c(C)n2C(=O)c1ccc(Cl)cc1
hey, can you rank those compounds up there by IC50? biggest number first please Sort and list the labels as requested.
P, Q, R, S

====

Molecular target: Prostaglandin G/H synthase 1 (Homo sapiens)
Experiment: Inhibition activity against recombinant human Prostaglandin G/H synthase 1
Parameters: concentration or dose not given beside the values
Settings: concentration not given here
property.name: inhibition (%)

CC(c1cc2ccccc2s1)N(O)C(N)=O (configuration not stated) ... 0
COc1ccc2c(c1)c(CNC(=O)N(C)O)c(C)n2C(=O)c1ccc(Cl)cc1 ... 64
COc1ccc2cc([C@H](C)NC(=O)NO)ccc2c1 ... 0
CC(C)Cc1ccc(C(C)N(O)C(N)=O)cc1 (configuration not stated) ... 37

a. CC(C)Cc1ccc(C(C)NC(=O)NO)cc1 (configuration not stated)
b. COc1ccc2c(c1)c(CCN(O)C(N)=O)c(C)n2C(=O)c1ccc(Cl)cc1
c. COc1ccc2cc([C@H](C)N(O)C(N)=O)ccc2c1
hey, can you rank those compounds up there by inhibition? biggest number first please Sort and list the labels as requested.
a, b, c
(a: 51%, b: 9%, c: 0%)

Measured values drawn from ChEMBL document CHEMBL1129962 for this set.
